- Test system: P. falciparum male gametocytes
- Assay Overview: P. falciparum Dual Gamete Formation Assay (PfDGFA), male readout (exflagellation)
- Type: cell-based, Plasmodium falciparum NF54
- Condition Context: Mean TOX HepG2 over DGFA IC50 MALE; GREEN = >10-fold; RED = <10-fold
Lab note - cut at 20 for Cytotox ratio Pf Male: Satisfied if strictly below, Not satisfied if not.

Some solved cases for reference:
>>> cat("O=C(C1CC1)N1c2ccccc2CCc2ccccc21")
"Not satisfied"
>>> cat("CN(C)CCNCc1cccc(-c2ccc3c(Nc4ccc(Oc5ccccn5)cc4)ccnc3c2)c1")
"Satisfied"
>>> cat("O=C1SC(=Cc2ccc(O)c(O)c2)C(=O)N1c1ccccc1")
"Not satisfied"
>>> cat("COc1cc2nc(N3CCN(c4nc(N)c5cc(OC)c(OC)cc5n4)CC3)nc(N)c2cc1OC")
"Not satisfied"
>>> cat("CN(C)CCOc1ccc(NC(=O)NC(C)(C)c2nc(-c3ccc(Cl)c(O)c3)c(-c3ccncc3)[nH]2)cc1.Cl")
"Not satisfied"
>>> cat("CN1CCN(CCCNCc2cccc(-c3ccc(CNCCc4ccccc4)cc3)c2)CC1.O=C(O)C(F)(F)F")
"Satisfied"

Here is another compound to look at.
Incoming: Determine whether this compound shows Cytotox ratio Pf Male lower than 20 (ties excluded): CC(Nc1cc(-c2ccccn2)nc(-c2ccccn2)n1)c1ccccc1 (stereo not shown)
Outgoing: Satisfied

Where these numbers come from: paper PMC10584170
